Give measured MIC for each item. Keep answers brief.
System: Escherichia coli
Experiment: Antibacterial activity against Escherichia coli ATCC25922 incubated for 16 to 18 hrs by muller hinton broth based microplate reader analysis
Format: functional
Conditions: time 16-18 hrs
Numeric answer only, unit µg/mL assumed.

### Prompt Which MIC is listed for CCCCCCCCCC[N+]1(C)CCN(C(=O)c2ccc(CN[C@@]3(C)C[C@H](O[C@H]4[C@H](Oc5c6cc7cc5Oc5ccc(cc5Cl)[C@@H](O)[C@@H](NC(=O)[C@@H](CC(C)C)NC)C(=O)N[C@@H](CC(N)=O)C(=O)N[C@H]7C(=O)N[C@H]5C(=O)N[C@H](C(=O)N[C@H](C(=O)O)c7cc(O)cc(O)c7-c7cc5ccc7O)[C@H](O)c5ccc(c(Cl)c5)O6)O[C@H](CO)[C@@H](O)[C@@H]4O)O[C@@H](C)[C@H]3O)cc2)CC1.[Br-] ?
### Response 64

### Prompt Which MIC is listed for CCCCCCCCCC[N+]1(C)CCN(C(=O)[C@H]2NC(=O)[C@H]3NC(=O)[C@H](NC(=O)[C@@H]4NC(=O)[C@H](CC(N)=O)NC(=O)[C@H](NC(=O)[C@@H](CC(C)C)NC)[C@H](O)c5ccc(c(Cl)c5)Oc5cc4cc(c5O[C@@H]4O[C@H](CO)[C@@H](O)[C@H](O)[C@H]4O[C@H]4C[C@](C)(N)[C@H](O)[C@H](C)O4)Oc4ccc(cc4Cl)[C@H]3O)c3ccc(O)c(c3)-c3c(O)cc(O)cc32)CC1.[Br-] (stereo in doubt) ?
### Response 16

### Prompt Which MIC is listed for CCCCCCCCCCCCCCCC[N+]1(C)CCN(C(=O)[C@H]2NC(=O)[C@H]3NC(=O)[C@H](NC(=O)[C@@H]4NC(=O)[C@H](CC(N)=O)NC(=O)[C@H](NC(=O)[C@@H](CC(C)C)NC)[C@H](O)c5ccc(c(Cl)c5)Oc5cc4cc(c5O[C@@H]4O[C@H](CO)[C@@H](O)[C@H](O)[C@H]4O[C@H]4C[C@](C)(N)[C@H](O)[C@H](C)O4)Oc4ccc(cc4Cl)[C@H]3O)c3ccc(O)c(c3)-c3c(O)cc(O)cc32)CC1.[Br-] (stereo in doubt) ?
### Response 64
